# subject-of-test: Glucose-dependent insulinotropic receptor (Homo sapiens)
# assay-notes: Activation of human GPR119 expressed in CHOK1 cells co-expressing CRE-luciferase at 1 uM after 6 hrs by luciferase reporter gene assay relative to GSK1292263
# Format: functional, cell-based
The threshold is 40%. Values of Activity beneath it are tagged True; values meeting or exceeding it are tagged False.

Cc1cc(/C=C2\CC(=O)NC2=O)ccc1OCc1csc(C2CCN(CC(C)(C)F)CC2)n1 :: False
CC(C)(F)CN1CCC(c2nc(COc3ccc(/C=C4\CC(=O)NC4=O)cc3)cs2)CC1 :: False
Cc1cc(/C=C2\CC(=O)NC2=O)ccc1OCc1csc(C2CCN(CC(C)(C)O)CC2)n1 :: True
CC(C)(F)CN1CCC(c2nc(COc3c(F)cc(/C=C4\CC(=O)NC4=O)cc3F)cs2)CC1 :: False
CCc1cnc(N2CCC(c3nc(COc4ccc(/C=C/C(=O)O)cc4F)cs3)CC2)nc1 :: False
CC(C)(C)OC(=O)N1CCC(c2nc(COc3ccc(/C=C4\CC(=O)NC4=O)cc3)cs2)CC1 :: False
CC(C)(C)OC(=O)N1CCC(c2nc(COc3ccc(/C=C4\CC(=O)NC4=O)cc3F)cs2)CC1 :: False
CC(C)(C)OC(=O)NCCNC(=O)CCc1cnc(N2CCC(c3nc(COc4ccc(-n5cnnn5)cc4)cs3)CC2)nc1 :: True
CCc1cnc(N2CCC(c3nc(COc4ccc(/C=C5\CC(=O)N(CCNC(=O)OC(C)(C)C)C5=O)cc4F)cs3)CC2)nc1 :: False
N=C(N)NC(=N)N1CCC(c2nc(COc3ccc(-n4cnnn4)cc3)cs2)CC1 :: True
CCc1cnc(N2CCC(c3nc(COc4c(F)cc(/C=C5\CC(=O)NC5=O)cc4F)cs3)CC2)nc1 :: False
O=C(O)CCc1cnc(N2CCC(c3nc(COc4ccc(-n5cnnn5)cc4)cs3)CC2)nc1 :: True
CC(C)(O)CN1CCC(c2nc(COc3c(F)cc(/C=C4\CC(=O)NC4=O)cc3F)cs2)CC1 :: True
Cc1cc(/C=C2\CC(=O)NC2=O)ccc1OCc1csc(C2CCN(C(=O)OC(C)(C)C)CC2)n1 :: False
CCc1cnc(N2CCC(c3nc(COc4ccc(/C=C5\CC(=S)N(CC(=O)O)C5=O)cc4F)cs3)CC2)nc1 :: True
CC(C)(F)CN1CCC(c2nc(COc3ccc(/C=C4\CC(=O)NC4=O)cc3F)cs2)CC1 :: False
O=C(CCc1cnc(N2CCC(c3nc(COc4ccc(-n5cnnn5)cc4)cs3)CC2)nc1)NOCc1ccccc1 :: True

* * *

# subject-of-test: Glucose-dependent insulinotropic receptor (Homo sapiens, UniProt Q8TDV5)
# Sequence (Q8TDV5 whole entry): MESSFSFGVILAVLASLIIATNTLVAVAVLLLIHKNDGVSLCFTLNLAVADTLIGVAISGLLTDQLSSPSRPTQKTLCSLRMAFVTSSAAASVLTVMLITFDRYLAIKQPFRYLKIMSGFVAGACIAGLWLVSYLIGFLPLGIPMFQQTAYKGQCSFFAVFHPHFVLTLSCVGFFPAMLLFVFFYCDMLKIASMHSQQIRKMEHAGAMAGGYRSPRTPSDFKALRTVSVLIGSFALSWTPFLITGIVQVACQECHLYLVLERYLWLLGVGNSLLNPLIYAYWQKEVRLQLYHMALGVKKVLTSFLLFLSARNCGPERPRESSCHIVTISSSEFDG
# assay-notes: Agonist activity at human GPR119 expressed in CHOK1 cells co-expressing CRE-luciferase after 6 hrs by luciferase reporter gene assay
# Format: functional, cell-based
pEC50: −log10 of the molar value.
pEC50 values by entry
measured-endpoint: pEC50

CC(C)(C)OC(=O)N1CCC(c2nc(COc3ccc(/C=C4\CC(=O)NC4=O)cc3F)cs2)CC1 :: 6.80
CCc1cnc(N2CCC(c3nc(COc4ccc(/C=C5\CC(=O)N(c6ccccc6)C5=O)cc4F)cs3)CC2)nc1 :: 7.09
CC(C)(C)OC(=O)N1CCC(c2nc(COc3ccc(-n4cnnn4)cc3)cs2)CC1 :: 6.99
CCc1cnc(N2CCC(c3nc(COc4ccc(/C=C5\CCNC5=O)cc4F)cs3)CC2)nc1 :: 7.00
